# system-name: SARS-CoV-2 spike S1 subunit (SARS-CoV-2, UniProt P0DTC2 SEQ:1-670)
# measurement-notes: BLI
# condition-notes: tags: His tag, SinoBiological 40591-V08B1; label: 5'-biotin
test-readout: binding result

Consider the following illustrative entries.
[
  {
    "binder": "S1_B1 (ssDNA) DNA: CCAGTGTAGACTACTCAATGCCGATGGGTCGGGTGGGTGGGTAGGCATTGATCGCTCCTCAGTACTATCCACAGGTCAACC",
    "binding result": "binds"
  },
  {
    "binder": "S1_A4 (ssDNA) DNA: CCAGTGTAGACTACTCAATGCGTGGGAAGGGTGGGCGGGAGCATTGATAACTCGGAGGAGCGTACTATCCACAGGTCAACC",
    "binding result": "binds"
  },
  {
    "binder": "S1_A6_F14 (ssDNA) DNA: ACTTGACCTTGGGTTATGGGTTTGGGCGGGAGGGTACTATCCACAGGTCAACC",
    "binding result": "binds"
  },
  {
    "binder": "S1_A8_F12 (ssDNA) DNA: CCAGTGTAGACTACTCAATGCTGTGTTGACTTGATCCTGTGGTATATGGGTGGGAGGGTCGGGT",
    "binding result": "binds"
  },
  {
    "binder": "S1_A6_F13 (ssDNA) DNA: AATGCTGTTATGACTTGACCTTGGGTTATGGGTTTGGGCGGGAGGGTACTATCCACAGGTCAACC",
    "binding result": "binds"
  }
]

Q: Which value of binding result has been reported for S1_A1-B (ssDNA) DNA: CCAGTGTAGACTACTCAATGCGGCTGTGTGACTTGACCTCTGGATATGGGAGGGAGGGCGGGTACTATCCACAGGTCAACC in the records?
A: binds

Q: Entry to check: S1_F12 (ssDNA) DNA: CCAGTGTAGACTACTCAATGCGTGGGAAGGGAGGGCGGGAGCATTGATAACTCGGAGGAGCGTACTATCCACAGGTCAACC
A: binds

Q: Entry to check: S1_A8_F13 (ssDNA) DNA: AATGCTGTGTTGACTTGATCCTGTGGTATATGGGTGGGAGGGTCGGGTACTATCCACAGGTCAAC
A: binds

Q: Entry to check: S1_D6 (ssDNA) DNA: CCAGTGTAGACTACTCAATGCTACTGACTCATCTGCCGAATCCAAACCCGACCAGTCCACGGTACTATCCACAGGTCAACC
A: no binding

Q: Entry to check: GTATATGGGTGGGAGGGTCGGGTACTATCCACAGGTCAAC (ssDNA) [S1_A8_F2]
A: binds

Q: Entry to check: S1_C8 (ssDNA) DNA: CCAGTGTAGACTACTCAATGCCGATGGGTCGGGGGGGTGGGTAGGCATTGATCATTCCTTTCGTACTATCCACAGGTCAACC
A: binds

Q: Entry to check: S1_C2 (ssDNA) DNA: CCAGTGTAGACTACTCAATGCGGCTGTGTGACTTGACCTCTGGATATGGGTGGGAGGGATGGGTACTATCCACAGGTCAACC
A: binds

Q: Entry to check: CCAGTGTAGACTACTCAATGCGTGGGAAGGGTGGGTGGGAGCATTGAT (ssDNA) [S1_A3_F10]
A: binds

Q: Entry to check: S1_C3-A (ssDNA) DNA: CCAGTGTAGACTACTCAATGCTGTGTTGACTTGATCCTGTGGCATATGGGTGGGAGGGCGGGTACTATCCACAGGTCAACC
A: no binding

Q: Entry to check: S1_A12 (ssDNA) DNA: CCAGTGTAGACTACTCAATGCCGTGTGGTGACCTTGATCCTGTGGTATATGGGTGGGAGGGGCGGGTACTATCCACAGGTCAACC
A: binds

Q: Entry to check: S1_A3_F11 (ssDNA) DNA: CCAGTGTAGACTACTCAATGCGTGGGAAGGGTGGGTGGGAGCATTGATAACTC
A: binds

Q: Entry to check: S1_F3-A (ssDNA) DNA: CCAGTGTAGACTACTCAATGCGGTATGAATATGATCGGCCCTATCCCTTCAGCTATTCCGGGTACTATCCACAGGTCAACC
A: binds

Q: Entry to check: CCAGTGTAGACTACTCAATGCGTGGGAAGGGTGGGTGGGA (ssDNA) [S1_A3_F9]
A: binds

Q: Entry to check: S1_C1-A (ssDNA) DNA: CCAGTGTAGACTACTCAATGCTGTGTTGACTTGATCCTGTGGTATTTGGGTGGGAGGGGCGGGTACTATCCACAGGTCAACC
A: binds

Q: Entry to check: S1_E6 (ssDNA) DNA: CCAGTGTAGACTACTCAATGCCCAGTGGCGAGCGACTTTTTATGTAAGAACATCGATTTTCCATGGTACTATCCACAGGTCAACC
A: no binding
